target: PfGluPho (Plasmodium falciparum)
Sequence (Q8IKU0 whole entry): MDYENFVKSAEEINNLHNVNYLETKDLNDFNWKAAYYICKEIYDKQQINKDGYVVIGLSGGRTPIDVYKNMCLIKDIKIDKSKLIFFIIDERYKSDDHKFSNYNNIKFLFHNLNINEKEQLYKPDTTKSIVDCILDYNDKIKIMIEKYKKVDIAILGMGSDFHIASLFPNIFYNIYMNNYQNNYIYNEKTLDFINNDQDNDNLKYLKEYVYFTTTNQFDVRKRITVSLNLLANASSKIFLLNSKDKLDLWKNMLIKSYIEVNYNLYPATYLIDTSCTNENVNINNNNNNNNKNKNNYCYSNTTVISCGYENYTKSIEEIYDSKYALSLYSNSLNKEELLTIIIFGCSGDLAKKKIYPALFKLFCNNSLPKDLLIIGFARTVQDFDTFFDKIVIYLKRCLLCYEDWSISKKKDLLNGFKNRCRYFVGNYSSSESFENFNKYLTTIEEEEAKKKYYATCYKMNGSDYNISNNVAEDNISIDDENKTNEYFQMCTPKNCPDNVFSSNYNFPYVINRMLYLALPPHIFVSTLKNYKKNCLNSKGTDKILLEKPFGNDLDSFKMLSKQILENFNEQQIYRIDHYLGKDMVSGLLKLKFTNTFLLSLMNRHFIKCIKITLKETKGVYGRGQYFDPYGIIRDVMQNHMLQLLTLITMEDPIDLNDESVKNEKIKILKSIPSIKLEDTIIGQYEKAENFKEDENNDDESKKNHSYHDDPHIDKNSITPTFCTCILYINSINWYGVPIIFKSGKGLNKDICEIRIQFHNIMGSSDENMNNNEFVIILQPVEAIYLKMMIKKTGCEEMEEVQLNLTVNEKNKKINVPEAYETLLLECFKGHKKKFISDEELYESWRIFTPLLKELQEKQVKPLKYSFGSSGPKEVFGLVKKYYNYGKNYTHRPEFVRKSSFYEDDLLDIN
pKi: −log10 of the molar value.
MEASURED_ENDPOINT: pKi

INSERT INTO measurements (compound_structure, measured_endpoint, recorded_measurement) VALUES
  ('CCN1CCC[C@@H]1CNC(=O)c1ccc2c(c1)NC(=O)c1cccc(C)c1S2', 'pKi', 6.64);

----------
Molecular target: PvG6PD (Plasmodium vivax, UniProt A5K3M1)
Sequence (A5K3M1 entry or part of it): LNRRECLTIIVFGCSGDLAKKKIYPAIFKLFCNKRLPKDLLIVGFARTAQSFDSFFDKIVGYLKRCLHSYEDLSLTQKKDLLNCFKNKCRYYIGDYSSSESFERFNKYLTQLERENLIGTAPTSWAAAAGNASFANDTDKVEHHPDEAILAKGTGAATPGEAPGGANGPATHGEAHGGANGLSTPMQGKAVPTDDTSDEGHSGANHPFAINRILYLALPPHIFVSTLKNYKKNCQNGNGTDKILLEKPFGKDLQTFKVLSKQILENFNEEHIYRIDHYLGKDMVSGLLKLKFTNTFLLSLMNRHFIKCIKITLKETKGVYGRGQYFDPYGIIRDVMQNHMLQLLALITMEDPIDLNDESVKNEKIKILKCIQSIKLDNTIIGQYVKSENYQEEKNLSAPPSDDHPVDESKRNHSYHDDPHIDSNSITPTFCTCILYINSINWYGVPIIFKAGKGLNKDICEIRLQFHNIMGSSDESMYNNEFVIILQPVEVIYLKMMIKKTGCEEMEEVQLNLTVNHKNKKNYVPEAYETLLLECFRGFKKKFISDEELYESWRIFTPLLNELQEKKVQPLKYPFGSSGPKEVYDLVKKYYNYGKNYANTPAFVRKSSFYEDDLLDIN
Assay: PvG6PD enzyme inhibition assay (NADPH formation, absorbance 340 nm / fluorescence)
Format: biochemical
Experimental: The G6PD activity of PfGluPho variants was measured spectrophotometrically as described for the wt enzyme. […] In brief, the initial reduction of NADP^+ to NADPH by PvG6PD was monitored by measuring the absorbance at 340 nm. […] The KM for NADP^+ was determined by titrating NADP^+ from 2 to 400 µM at 800 µM G6P; the KM for G6P was measured accordingly by titrating G6P from 2 to 1200 µM at 200 µM NADP^+. KM values were calculated using GraphPad Prism. […]
pIC50: −log10 of the molar value.
Overview of recorded pIC50 for various compounds
MEASURED_ENDPOINT: pIC50

INSERT INTO results (compound, recorded_measurement) VALUES
  ('O=C(/C(=C1\N(Cc2ccc(Cl)nc2)CCN1Cc1cnc(Cl)s1)[N+](=O)[O-])C(Cl)(Cl)[N+](=O)[O-]', 5.25),
  ('O=c1oc2c(O)c(O)c(O)c3c(=O)oc4c(O)c(O)c(O)c1c4c23', 7.35),
  ('ClC=C(n1nnc2ccccc21)n1nnc2ccccc21', 4.89),
  ('N#CC(Br)c1ncccn1 (centres unmarked)', 5.68),
  ('O=c1oc2c(O)c(O)c(O)c3c(=O)oc4c(O)c(O)cc1c4c23', 7.43),
  ('O=c1oc2c(O)c(O)cc3c(=O)oc4c(O)c(O)cc1c4c23', 7.49),
  ('O=C(C(=C1N(Cc2ccc(Cl)nc2)CCN1Cc1ccc(Cl)nc1)[N+](=O)[O-])C(Cl)(Cl)[N+](=O)[O-]', 5.04),
  ('C=C[S+]([O-])c1sc(Cl)c(N2CCN(c3c(Cl)sc([S+]([O-])C=C)c3[N+](=O)[O-])CC2)c1[N+](=O)[O-] (centres unmarked)', 6.70);
